Where do these numbers come from? They come from patent US20200216495A1.

- system.name: Tau40 P301L protein (human)
- method.description: cell-based or functional assay
Square brackets hold non-standard residues; d marks the D form. Ends that are not written are not given here.
Measured IC50, Tau40 assay (ThT) of individual entries
Quick reminder: number only, in µM, skip the unit.

Example entries and their recorded answers appear below.
{"binder": "[dR][dL][dR][dL][dK][dW] [rlrlkw]", "IC50, Tau40 assay (ThT) [µM]": 3.43}
{"binder": "[dW][dR][dL][dK][dH][dR][dW] [wrlkhrw]", "IC50, Tau40 assay (ThT) [µM]": 5.86}
{"binder": "[dF][dK][dL][dE][dI][dR][dY][dH] [fkleiryh]", "IC50, Tau40 assay (ThT) [µM]": 3.38}

Now for another entry.
Query block: Identify measured IC50, Tau40 assay (ThT) associated with [dL][dK][dI][dF][dI][dW][dY][dH] [lkifiwyh]
Result block: 3.33
